Measured remaining activity at 100 µM of individual entries
- Test target: IGF-1R (Homo sapiens, UniProt P08069)
- Sequence (P08069 31-1367, species assumed): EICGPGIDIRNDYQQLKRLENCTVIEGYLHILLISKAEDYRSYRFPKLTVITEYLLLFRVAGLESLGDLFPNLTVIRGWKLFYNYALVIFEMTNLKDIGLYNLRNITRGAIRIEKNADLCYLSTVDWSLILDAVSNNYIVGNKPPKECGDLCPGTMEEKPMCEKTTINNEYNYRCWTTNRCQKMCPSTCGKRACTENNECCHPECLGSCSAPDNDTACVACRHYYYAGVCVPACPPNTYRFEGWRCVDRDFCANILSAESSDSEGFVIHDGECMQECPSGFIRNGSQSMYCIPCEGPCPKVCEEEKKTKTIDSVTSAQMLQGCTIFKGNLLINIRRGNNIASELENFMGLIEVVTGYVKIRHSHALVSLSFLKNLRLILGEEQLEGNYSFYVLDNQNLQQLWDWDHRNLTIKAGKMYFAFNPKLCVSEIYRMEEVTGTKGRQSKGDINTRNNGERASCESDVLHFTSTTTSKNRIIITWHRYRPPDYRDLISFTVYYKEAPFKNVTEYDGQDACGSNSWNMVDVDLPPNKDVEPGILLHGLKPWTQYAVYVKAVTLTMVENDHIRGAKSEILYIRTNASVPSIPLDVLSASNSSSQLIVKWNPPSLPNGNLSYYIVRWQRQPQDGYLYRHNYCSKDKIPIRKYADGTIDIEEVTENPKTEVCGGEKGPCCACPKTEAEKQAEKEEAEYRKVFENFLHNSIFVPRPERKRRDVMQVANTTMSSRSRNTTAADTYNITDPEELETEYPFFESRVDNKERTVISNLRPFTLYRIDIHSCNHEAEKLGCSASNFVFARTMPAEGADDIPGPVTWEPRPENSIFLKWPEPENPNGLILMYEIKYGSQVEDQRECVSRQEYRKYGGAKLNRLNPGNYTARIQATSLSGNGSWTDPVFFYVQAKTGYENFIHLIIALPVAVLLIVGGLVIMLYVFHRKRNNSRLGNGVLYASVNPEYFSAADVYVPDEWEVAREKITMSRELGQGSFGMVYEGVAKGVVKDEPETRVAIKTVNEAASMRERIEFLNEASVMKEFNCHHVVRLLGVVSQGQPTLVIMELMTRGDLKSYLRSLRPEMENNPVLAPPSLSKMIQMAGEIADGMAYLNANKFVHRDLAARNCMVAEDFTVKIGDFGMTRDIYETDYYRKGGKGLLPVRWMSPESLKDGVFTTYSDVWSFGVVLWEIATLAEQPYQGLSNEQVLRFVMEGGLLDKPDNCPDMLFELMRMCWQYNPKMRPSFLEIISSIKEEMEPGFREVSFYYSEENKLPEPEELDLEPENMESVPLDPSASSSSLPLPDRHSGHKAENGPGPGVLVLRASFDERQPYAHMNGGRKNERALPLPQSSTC
- Test protocol: Kinase profiling IGF-1R
- Type: biochemical
- Measurement context: 100 micromolar inhibitor concentration; 100 is no change; read-out: residual kinase activity, IGF-1R
Express the result in % but write the number alone.

Please review the following examples before continuing.
// query Could you share what remaining activity at 100 µM was measured for CC(=O)Nc1nc2cc(C(F)(F)F)ccc2s1 , tested on IGF-1R (Homo sapiens, UniProt P08069)?
// result 77

// query Could you share what remaining activity at 100 µM was measured for CC(=O)Nc1nc2ccc(O)cc2s1 , tested on IGF-1R (Homo sapiens, UniProt P08069)?
// result 18

// query Could you share what remaining activity at 100 µM was measured for CC(=O)Nc1nc2cc(F)ccc2s1 , tested on IGF-1R (Homo sapiens, UniProt P08069)?
// result 58

// query Could you share what remaining activity at 100 µM was measured for CC(=O)Nc1nc2ccc(C(F)(F)F)cc2s1 , tested on IGF-1R (Homo sapiens, UniProt P08069)?
// result 84

// query Could you share what remaining activity at 100 µM was measured for CC(=O)Nc1nc2ccc([N+](=O)[O-])cc2s1 , tested on IGF-1R (Homo sapiens, UniProt P08069)?
// result 91

// query Could you share what remaining activity at 100 µM was measured for COc1ccc2sc(NC(C)=O)nc2c1 , tested on IGF-1R (Homo sapiens, UniProt P08069)?
// result 78

// moving on: another record for remaining activity at 100 µM
// query Could you share what remaining activity at 100 µM was measured for CC(=O)Nc1nc2ccc(C#N)cc2s1 , tested on IGF-1R (Homo sapiens, UniProt P08069)?
// result 78
